testedSystem: T1, recombinant LILRB1 (human, UniProt Q8NHL6 24-461)
T1 construct: LILRB1-Fc proteins were also made; also called LILRB1 recombinant proteins
T1 sequence (Q8NHL6 24-461 limits assumed): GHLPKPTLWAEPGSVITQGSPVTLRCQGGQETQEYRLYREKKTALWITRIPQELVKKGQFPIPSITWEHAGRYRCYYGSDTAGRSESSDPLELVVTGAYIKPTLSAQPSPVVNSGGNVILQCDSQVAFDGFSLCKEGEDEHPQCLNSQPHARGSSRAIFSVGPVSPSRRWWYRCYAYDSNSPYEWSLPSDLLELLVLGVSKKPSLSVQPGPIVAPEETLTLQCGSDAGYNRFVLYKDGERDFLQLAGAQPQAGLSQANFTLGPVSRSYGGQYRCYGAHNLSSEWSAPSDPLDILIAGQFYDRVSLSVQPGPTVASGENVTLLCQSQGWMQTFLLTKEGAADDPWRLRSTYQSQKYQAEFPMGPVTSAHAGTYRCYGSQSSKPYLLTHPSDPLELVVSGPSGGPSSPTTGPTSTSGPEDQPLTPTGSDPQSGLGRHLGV
assayMethodText: BLI (Octet RED96), antibody on biosensor, recombinant LILRB1 in solution;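 note: Background-subtracted sensorgrams fitted with a one-to-one binding model, KD taken as koff over kon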
metricName: koff (s⁻¹)
Write it as a number; the unit s⁻¹ goes unstated.

Below: 3 binders and their reported koff.
{"binder": "B1-#3 (antibody, V domains shown, recombinant rabbit IgG) VH: QSLEESEGDLVKPEGSLTLTCKASGFDFSSDAMCWVRQAPGKGLEWIGCIYNGDEITDHASWAKGRFTISKTSPTTVTLQMTSLTVADTATYFCARAVYSDGGAGYPYMYGMDLWGPGTLVTVSS VL: ELDMTQTPASVEAAVGGTVTIKCQASQNIYSYLVWYQQKPGQPPKLLISKASTLASGVSSRFKGSGSGTEFTLTINDLECADAATYYCQTNYFSSTSHFGVFTFGGGTELEIK", "koff (s⁻¹)": "5.63e-05"}
{"binder": "B1-#178-2 (antibody, V domains shown, recombinant rabbit IgG) VH: QKQLVESGGGLVQPEGSLALTCTASGFSFSSSYWICWVRQAPGKGLEWIACIYAGSSGSTYYASWVNGRFTVFKTSSTTVTLQMTSLTAADTATYFCARGGTSYRLDLWGPGTLVTVSS VL: ELVLTQTPSSKSVAVGDTVTINCQASDNVYSNNYTSWFQQKPGQPPKQLLYYAAYRASGVPSRFKGSGSGTEFTLSISDVVCDDAATYYCSGHKDYSDDGSTFGGGTEVEIK", "koff (s⁻¹)": 0.000273}
{"binder": "B1-#173-2 (antibody, V domains shown, recombinant rabbit IgG) VH: QSVEESGGDLVKPGASLTLTCTASGFDFSSNAYLCWVRQAPGKGLEWIGCIYDGTSGDTYYANWAKGRFTISRSSSTTVTLQMTSLTAADTATYFCARDTRSSNYYFNLWGPGTLVTISS VL: ELVLTQTPSSTSAAVGGTVTINCQASQSVDNNKQLSWYQQKPGQPPKQLIYSASKLASGVPSRFKGSGSGTQFTLTISDLECDDAATYYCAGYYYSGSATDAWAFGGATEVEIN", "koff (s⁻¹)": 0.000262}

q: Recorded koff for B1-#93 (antibody, V domains shown, recombinant rabbit IgG) VH: EQSVEESGGDLVKPGTSLTLTCTASGFSFSGNTICWVRQAPGKRPEWIACIYPSSTSITTYATWAKGRFTVSKTSSTTVTLQMTSLTAADTATYFCARRYAAFLTYGSGAFDPWGPGTLVTISS VL: ELDLTQTPASVSAAVGGTVTINCQASESIGSALAWYQQKPGQPPKLLIYSASALASGVPSRFKGSGSGTEYTLTISDLECADAATYYCQSYYGSGTTALDTFGGGTEVEIK , please?
a: 0.000338

Values were extracted from patent US12723078.
